run.description: yeast display, Sf9 membrane polyspecificity reagent, FACS + sequencing; frameworks hold sequencing errors
measurement.type: polyreactivity (PSR sort gate)

Below: 4 sequences and their reported polyreactivity (PSR sort gate).
• QFQLVESGGGLVQAGGSLRLSCAASGIIFLENAMGWYRQAPGKEREFVAAISRSGGITYYADSVKGRFTISRDNAKNTVYLQMNSLKPEDTAVYYCAAVGRDRYRHSPQPLYDYWGQGTQVTVSS = low polyreactivity
• QVQLVESGGGLVQAGGSLRLSCAASGRIFRYYTMGWYRQAPGKEREFVAAITLSGGRTYYADSVKGRFTISRDNAKNTVYLQMNSLKPEDTAVYYCAAYDRITRYDYWGQGTQVTVSS = high polyreactivity
• QVQHVESGRGLVQAGGSLRLSCAASGRIFQYYTMGRYRQAPGKERELVAAISRSGSSTYYADSVKGRFTISRDNAKNTVYLQMNSLKPEDTAVYYCAAVSEYYKGYDYWGQGTQVTVSS = high polyreactivity
• QVQLVESGGGLVQAGGSLRLSCAASGSTFRPYAMGGYRQAPGKERELVARITGSGDSTYYADSVKGRFTISRDNAKNTVYLQMNSLKPEDTAVYYCAREFVFSLSGFDYWGQGTQVSVSS = low polyreactivity

Attention now shifts to the item below.
[ask] Give the measured polyreactivity (PSR sort gate) of QVQLVESGGGLVQAGGSLRLSCAASGSIFGYYAMGGYIQAPGYERELVAAISYSGGSTYYADSVKGRFTISRDHAKNTVYLQMNSLKPEDTAVYYCAAVRRRTRYGYRYDYWGQGTQVTVSS .
[reply] high polyreactivity
